These entries and their values trace back to the METLIN SMRT retention time set (Domingo-Almenara et al. 2019).

Recorded RP-LC retention time by entry
Protocol Details: gradient 5% acetonitrile 3 min, to 50% in 2 min, to 85% in 15 min, held 3 min, 100 µL/min
Measurement Conditions: column: Zorbax Extend-C18 2.1 x 50 mm; eluents: water / acetonitrile, 0.1% formic acid

# Compound, RP-LC retention time, s
records = [
    ("CN(CCc1noc(-c2ccc(F)cc2)n1)C(=O)Nc1cc(F)ccc1F", 924),
    ("COC(=O)c1ccc(-c2nc3cnccn3c2NC2CCCC2)cc1", 877),
    ("O=C(NCc1ccco1)C1CCN(C(=O)c2ncn3c2COC(c2ccc(Cl)cc2)C3)CC1 (stereo not given)", 753),
    ("COCC(=O)NC1CCN(c2ccc(C)cc2)C1=O (stereo not given)", 666),
    ("COC(=O)CNC(=O)N1CCCC1c1ccc(OC)cc1 (stereo not given)", 678),
    ("Cc1cnnn1-c1ccc(C(=O)Nc2cc(Cl)ccc2Cl)cc1", 815),
    ("CC(C)n1cnc2ccc(-c3noc(CCc4ccccc4)n3)cc21", 797),
    ("CCC(C)NC(=O)C1CCCN(C(=O)c2[nH]c(C)c(C(=O)OC(C)C)c2C)C1 (stereo not given)", 774),
    ("CCn1ccc(C(=O)NCC2Cn3cccc3C(=O)N2C)n1 (stereo not given)", 596),
    ("CC1CCN(C(=O)CCCN2C(=O)CCn3nc(-c4cn(C)c5ccccc45)cc32)CC1", 880),
    ("COCc1cn(CC2CCCN(Cc3cn(C)c4ccc(OC)cc34)C2)nn1 (stereo not given)", 600),
    ("Cc1cc(C)cc(S(=O)(=O)N2CCC(c3nc(C(=O)N(C)C)c(C)o3)CC2)c1", 882),
    ("COc1ccc(Nc2c(C(=O)N3CCCCCC3)cnc3nc(C)ccc23)cc1", 638),
    ("CCOc1ccc(NS(=O)(=O)c2cc(-c3[nH]ncc3C(=O)N(C)C)oc2C)cc1", 686),
    ("COc1ccccc1N1CCN(c2cc(C(=O)O)c3cc(NS(C)(=O)=O)ccc3n2)CC1", 619),
    ("CCn1c(CCc2ccccc2NS(=O)(=O)c2cc(F)ccc2F)nc2ccccc21", 764),
    ("CCCNc1cc(N2CCC(CCC(=O)NCc3ccc(OC)cc3)CC2)ncn1", 657),
    ("Cc1onc(-c2ccccc2Cl)c1C(=O)Nc1nnc(-c2cccs2)o1", 767),
    ("O=C(NCc1cccs1)C1CCN(S(=O)(=O)c2cc(-c3noc(C4CCC4)n3)cs2)CC1", 1000),
    ("CCC(C)NC(=O)CC1Sc2ncccc2N(C)C1=O (stereo not given)", 632),
]
